System: Amaranthus retroflexus
ASSAY INFO: Herbicidal effect pre-emergence, AMARE
Type: in vivo
TEST CONDITIONS: 320 g/hectare, visual grading after 3 weeks vs untreated controls
For each record, write down the corresponding Effect in % in respect of stated plant, AMARE.
Entry rule: numbers only, all in %.

Ask | Dear colleague, I am looking for the recorded Effect in % in respect of stated plant, AMARE of the following compound: CNC.N#CC(C#N)c1nc(-c2ccc(Cl)cc2)nc(N)c1Cl
Reply | 100

Ask | Returns the measured Effect in % in respect of stated plant, AMARE for the input compound. Input: COc1c(Cl)ccc(-c2nc(N)c(Cl)c(C(C#N)C#N)n2)c1F.N
Reply | 100

Ask | Looking for the measured Effect in % in respect of stated plant, AMARE of C[N+](C)(C)C.N#C[C-](C#N)c1nc(-c2ccc(Cl)cc2)nc(N)c1Cl , can you help?
Reply | 95

Ask | Would you mind telling me what Effect in % in respect of stated plant, AMARE value was observed for CN(C)C.N#CC(C#N)c1nc(-c2ccc(Cl)cc2)nc(N)c1Cl ?
Reply | 100

Ask | Given the compound CN.N#CC(C#N)c1nc(-c2ccc(Cl)cc2)nc(N)c1Cl , what is its reported Effect in % in respect of stated plant, AMARE?
Reply | 85

====

Could you please report measured Effect in % in respect of stated plant, VIOTR for the items listed next?
System: Viola tricolor
ASSAY INFO: Herbicidal effect pre-emergence, VIOTR
Format: in vivo
TEST CONDITIONS: 320 g/hectare, visual grading after 3 weeks vs untreated controls
Field format: number, assumed %, no unit text.

Ask | What value of Effect in % in respect of stated plant, VIOTR has been recorded for this entry: N.N#CC(C#N)c1nc(-c2ccc(Br)cc2)nc(N)c1Cl
Reply | 100

Ask | So what's the measured Effect in % in respect of stated plant, VIOTR for this one? N#CC(C#N)c1nc(-c2cc(F)c(Cl)c(F)c2)nc(N)c1Cl
Reply | 100

Ask | Name the recorded Effect in % in respect of stated plant, VIOTR for CC(C)(C)c1nc(N)c(Cl)c(C(C#N)C#N)n1.N .
Reply | 100

Ask | Which Effect in % in respect of stated plant, VIOTR value belongs to N#CC(C#N)c1nc(C2CC2)nc(N)c1Cl ?
Reply | 95

Ask | Give its Effect in % in respect of stated plant, VIOTR value. Item: Cc1cc(-c2nc(N)c(Cl)c(C(C#N)C#N)n2)ccc1F
Reply | 100

Ask | Sample N#CC(C#N)c1nc(-c2ccc(Cl)cc2F)nc(N)c1Cl — what was its Effect in % in respect of stated plant, VIOTR?
Reply | 90

Ask | I am curious: what Effect in % in respect of stated plant, VIOTR value has been reported for CNC.N#CC(C#N)c1nc(-c2ccc(Cl)cc2)nc(N)c1Cl ?
Reply | 100

Ask | Look up Effect in % in respect of stated plant, VIOTR: N.N#CC(C#N)c1nc(-c2ccc(Cl)c(C(F)(F)F)c2)nc(N)c1Cl
Reply | 80

Ask | Can you look up the measured Effect in % in respect of stated plant, VIOTR of N#CC(C#N)c1nc(-c2ccc(Cl)cc2)nc(N)c1Cl for me?
Reply | 80

Ask | Effect in % in respect of stated plant, VIOTR lookup needed for CN(C)C.N#CC(C#N)c1nc(-c2ccc(Cl)cc2)nc(N)c1Cl , thanks.
Reply | 100

Ask | For the molecule shown here, N#CC(C#N)c1nc(-c2ccc([N+](=O)[O-])cc2)nc(N)c1Cl , give the reported Effect in % in respect of stated plant, VIOTR.
Reply | 90

Ask | What value of Effect in % in respect of stated plant, VIOTR has been reported for the following molecule? N.N#CC(C#N)c1nc(-c2ccc(Cl)cc2Cl)nc(N)c1Cl
Reply | 80

Ask | Which Effect in % in respect of stated plant, VIOTR value is on record for CN.N#CC(C#N)c1nc(-c2ccc(Cl)cc2)nc(N)c1Cl ?
Reply | 100

Ask | Given CNc1nc(-c2ccc(Cl)cc2)nc(C(C#N)C#N)c1Cl , state its recorded Effect in % in respect of stated plant, VIOTR.
Reply | 100

Ask | // Effect in % in respect of stated plant, VIOTR lookup, key: N.N#CC(C#N)c1nc(-c2ccc(Cl)cc2F)nc(N)c1Cl
Reply | 80

Ask | So what does the record say about Effect in % in respect of stated plant, VIOTR for C[N+](C)(C)C.N#C[C-](C#N)c1nc(-c2ccc(Cl)cc2)nc(N)c1Cl ?
Reply | 100

Ask | For the molecule N.N#CC(C#N)c1nc(-c2ccc(Br)cc2F)nc(N)c1Cl , what Effect in % in respect of stated plant, VIOTR is on record?
Reply | 100

Ask | Item under review: N.N#CC(C#N)c1nc(-c2ccc(Cl)cc2)nc(N)c1Cl . Reported Effect in % in respect of stated plant, VIOTR?
Reply | 100

====

Could you please report measured Effect in % in respect of stated plant, ABUTH for the items listed next?
Test system: Abutilon theophrasti
ASSAY INFO: Herbicidal effect pre-emergence, ABUTH
Type: in vivo
TEST CONDITIONS: 320 g/hectare, visual grading after 3 weeks vs untreated controls
From the text: Seeds of mono- and dicotyledonous weed plants and crop plants are planted in wood-fiber pots in sandy loam and covered with earth. The compounds according to the invention, formulated in the form of wettable powders (WP) or as emulsion concentrates (EC), are then applied to the surface of the covering earth as aqueous suspension or emulsion at an application rate corresponding to 320 g/hectare at an application rate of 600 to 800 l of water/ha (converted) with the addition of 0.2% wetting agent. […]
Numeric answer only, unit % assumed.

Ask | Please provide the recorded Effect in % in respect of stated plant, ABUTH for COc1c(Cl)ccc(-c2nc(N)c(Cl)c(C(C#N)C#N)n2)c1F.N , tested on Abutilon theophrasti.
Reply | 90

Ask | Enter reported Effect in % in respect of stated plant, ABUTH observed with Abutilon theophrasti for CN(C)C.N#CC(C#N)c1nc(-c2ccc(Cl)cc2)nc(N)c1Cl
Reply | 80

Ask | Effect in % in respect of stated plant, ABUTH of N.N#CC(C#N)c1nc(-c2ccc(Cl)cc2F)nc(N)c1Cl on Abutilon theophrasti?
Reply | 90

Ask | Kindly state the measured Effect in % in respect of stated plant, ABUTH obtained for N.N#CC(C#N)c1nc(-c2ccc(Cl)cc2)nc(N)c1Cl with Abutilon theophrasti.
Reply | 80

Ask | Notebook entry, Abutilon theophrasti assay: Effect in % in respect of stated plant, ABUTH of Cc1ccc(-c2nc(N)c(Cl)c(C(C#N)C#N)n2)cc1 = ?
Reply | 80

Ask | Field: Effect in % in respect of stated plant, ABUTH (Abutilon theophrasti). Entry: N#CC(C#N)c1nc(C2CC2)nc(N)c1Cl
Reply | 90

Ask | Query Effect in % in respect of stated plant, ABUTH on Abutilon theophrasti for Cc1ccc(-c2nc(N)c(Cl)c(C(C#N)C#N)n2)cc1.N
Reply | 80

Ask | Hi! What's the reported Effect in % in respect of stated plant, ABUTH for N#CC(C#N)c1nc(-c2ccc(Br)cc2F)nc(N)c1Cl on Abutilon theophrasti?
Reply | 100

====

Test system: Amaranthus retroflexus
ASSAY INFO: Herbicidal effect pre-emergence, AMARE
Assay type: in vivo
TEST CONDITIONS: 320 g/hectare, visual grading after 3 weeks vs untreated controls
Excerpt: Seeds of mono- and dicotyledonous weed plants and crop plants are planted in wood-fiber pots in sandy loam and covered with earth. The compounds according to the invention, formulated in the form of wettable powders (WP) or as emulsion concentrates (EC), are then applied to the surface of the covering earth as aqueous suspension or emulsion at an application rate corresponding to 320 g/hectare at an application rate of 600 to 800 l of water/ha (converted) with the addition of 0.2% wetting agent. […]
ATTRIBUTE MEASURED: Effect in % in respect of stated plant, AMARE

Ask | // returns reported Effect in % in respect of stated plant, AMARE for input N#CC(C#N)c1nc(C2CC2)nc(N)c1Cl
Reply | 90%

Ask | // returns reported Effect in % in respect of stated plant, AMARE for input N#CC(C#N)c1nc(-c2ccc(Cl)cc2Cl)nc(N)c1Cl
Reply | 90%

Ask | Name the recorded Effect in % in respect of stated plant, AMARE for N#CC(C#N)c1nc(-c2cc(F)ccc2N)nc(N)c1Cl .
Reply | 100%

Ask | Which Effect in % in respect of stated plant, AMARE is reported for this compound? N.N#CC(C#N)c1nc(-c2ccc(Br)cc2)nc(N)c1Cl
Reply | 90%

Ask | Need Effect in % in respect of stated plant, AMARE of N#CC(C#N)c1nc(-c2ccc(Br)cc2F)nc(N)c1Cl , thanks.
Reply | 80%
